Tested on: BT-549
Test: NCI tumour cell line growth inhibition, 48 h
Active and inactive are the calls of the source. No stated cut-off is given here; in the data, active = GI50 up to about 1.1 µM and inactive = higher.
experimental.readout: GI50

Known GI50 results, listed for orientation:
* COC(=O)/C=C1\C(=O)Nc2ccc(Br)cc21 | 1.69 µM (inactive)
* Cn1c2ccccc2n2c3ncccc3c(=S)c(C#N)c12 | > 100 µM (inactive)
* CCOC(=O)CC1C(O)C(=O)N(C)C1c1ccccc1 (centres undefined) | > 100 µM (inactive)

Query: Recall and state the measured GI50 for O=C(Cc1cc(=O)oc2cc(O)ccc12)N/N=C/c1ccc(N(CCCl)CCCl)cc1 .
Reply: 16.4 µM (inactive)

Query: Recall and state the measured GI50 for O=C(/C=C/c1ccccc1)Oc1ccc(C(=O)/C=C/c2ccccc2)cc1 .
Reply: 6.49 µM (inactive)

Query: Recall and state the measured GI50 for COc1ccc(C(=O)C(CC2C(=O)CC(C)(C)C(C(=O)C(=O)Nc3c(C)cccc3C)C2=O)c2ccc(OC)cc2)cc1 (centres undefined) .
Reply: > 100 µM (inactive)

Query: Recall and state the measured GI50 for C[C@]12CC[C@H]3[C@@H](CC=C4C[C@@H](N5CCCC5)CC[C@@]43C)[C@@H]1C/C(=C\c1ccc([N+](=O)[O-])cc1)[C@@H]2O .
Reply: 13.5 µM (inactive)

Query: Recall and state the measured GI50 for COc1cc(C(c2ccc3c(c2)OCO3)N2C(=O)CCC2C(=O)O)cc(OC)c1OC (centres undefined) .
Reply: > 100 µM (inactive)

Query: Recall and state the measured GI50 for Cc1nnc(-n2c(O)cc(=O)n(-c3ccccc3)c2=S)nc1/C=C/c1ccc(N(C)C)cc1 .
Reply: 20.9 µM (inactive)

---

System: HL-60
Assay: NCI tumour cell line growth inhibition, 48 h
Activity calls are given as the source filed them. No stated cut-off is given here; in the data, active = GI50 up to about 1.1 µM and inactive = higher.
A correct response names exactly one class from yes (1) for active, no (0) for inactive

Query: Could you check what this test reported for COC(=O)/C=C1/N=C(N(C)/N=C/c2ccccc2)NC1=O ?
Reply: no (0)

Query: Could you check what this test reported for COc1ccc(Nc2cnc3cc(N)ccc3n2)cc1OC ?
Reply: no (0)

Query: Could you check what this test reported for C1=CCN(c2ccccc2)CC1 ?
Reply: no (0)

Query: Could you check what this test reported for O=C(NCCCN1CCN(CCCNC(=O)c2cnc3ccccc3n2)CC1)c1cnc2ccccc2n1 ?
Reply: no (0)

Query: Could you check what this test reported for O/N=C1/C(=C/c2ccc(Br)cc2)CCCC1C(NO)c1ccc(Br)cc1 (stereo unspecified) ?
Reply: no (0)

---

Test system: M14
Assay: NCI tumour cell line growth inhibition, 48 h
Activity calls are given as the source filed them. Cut-off read from the data, not from the text of the source: active = GI50 up to about 1.1 µM and inactive = higher.
A correct response names exactly one class from 1.0 for active, 0.0 for inactive

Recorded results for 4 compounds are shown here.
• O=C(Nc1nccs1)c1c(O)nc2sccn2c1=O = 0.0
• O=C(O)C1CC2C=CCC(C2)C1 (configuration not stated) = 0.0
• CNC(=O)C(NC(=O)[C@H](CC(C)C)NC(=O)[C@@H](S)CCN1C(=O)N(C)C(C)(C)C1=O)C(C)(C)C (some centres not stated) = 0.0
• CC1=CC(=O)c2cccc(O)c2C1=O = 0.0

Query: Could you check what this test reported for O=C1CCCc2c(O)ccc(O)c21 ?
Reply: 0.0

Query: Could you check what this test reported for C=C=C(Sc1ccccc1)C(C)(C)OC(C)=O ?
Reply: 0.0

Query: Could you check what this test reported for NC(CCc1nc(-c2cccc([N+](=O)[O-])c2)cs1)C(=O)O (configuration not stated) ?
Reply: 0.0

Query: Could you check what this test reported for CCOC(=O)n1cncc1CC(NC(=O)Cc1c(C(=O)C=C(C)C)[nH]c2ccccc12)C(=O)OC (configuration not stated) ?
Reply: 0.0

Query: Could you check what this test reported for O=[N+]([O-])c1ccc(-c2nc3ccccc3o2)cc1 ?
Reply: 0.0

Query: Could you check what this test reported for NC(CP(=O)(O)O)C(=O)O (configuration not stated) ?
Reply: 0.0

Query: Could you check what this test reported for Nc1ccc2c(c1)N(C(=O)c1cc3cc(NC(=O)c4cc5ccccc5o4)ccc3[nH]1)CC2CCl (configuration not stated) ?
Reply: 1.0

Query: Could you check what this test reported for CCCN(CCCCC(NC(C)=O)C(=O)NCc1ccccc1)C(=O)NCCCl (configuration not stated) ?
Reply: 0.0

Query: Could you check what this test reported for CSc1nc(Nc2cccc(C(F)(F)F)c2)c2c(N)nn(C)c2n1 ?
Reply: 0.0

Values were extracted from ChEMBL document CHEMBL1201862.
